Assignment: determine reported protein stability index for the given sequences.
- Tested on: Saccharomyces cerevisiae
- Experiment notes: protein stability index of tFT-peptide fusion (C-terminal peptide) (PSI (0-1 scale)); higher = more stable (slower turnover)
- Condition notes: genetic background: das1 deletion; temperature: 30 C

Okay, here is my list. What is protein stability index for each of these?
1. LDKEMADYFEKK [YRA1 C-terminal 12 aa]
2. GRLFEGMPGTET [ITT1 C-terminal 12 aa]
3. SGFFSSLKTMFN [PAR32 C-terminal 12 aa]
4. GGNKQAPGLELG [YMR242W-A C-terminal 12 aa]
5. KPDVERVYKENT [FAA4 C-terminal 12 aa]
6. HLYSTLLFHSVN [RRG8 C-terminal 12 aa]

*A*
1: 0.693; 2: 0.709; 3: 0.719; 4: 0.692; 5: 0.701; 6: 0.728
